- test details: Metabolic stability in mouse liver microsome assessed as intrinsic clearance at […] preincubated for 5 mins followed by NADPH addition and measured after 20 mins by LC-MS analysis
- Assay type: ADME
- condition parameters: liver microsomes, dose 2.5 µM, time 25 min, read-out: CLH
quantity: CLint scaled at […] (mL/min/kg)

>>> recorded_number("CC1(N)CCN(c2cnc3nc(-c4cccc5ccccc45)ccc3n2)CC1")
22

A. Nc1nccc(Sc2ccc3nc(N4CCC5(CC4)Cc4ncccc4[C@H]5N)cnc3n2)c1Cl
B. CC1(N)CCN(c2cnc3nc(Oc4cccc(Cl)c4Cl)ccc3n2)CC1
Task for the reader: decide whether A or B has the larger CLint scaled at […]. Output the label that corresponds to your choice.
A
